- assayed_system: AMP-activated protein kinase, AMPK (Homo sapiens) (UniProt P54646+O43741+P54619+Q9UGJ0+Q9Y478+Q13131+Q9UGI9)
- method_notes: Activation of AMPK in human HepG2 cells assessed as increase in AMPK phosphorylation at 1 to 20 uM after 30 mins by Western blotting
- Assay type: cell-based
Activity calls are given as the source filed them. The calls are words filed in the database; no cut-off is given here.

| chemical_structure | Activity |
| --- | --- |
| C[C@H](CC[C@@H](O)C(C)(C)O)[C@H]1CC[C@@]2(C)[C@@H]3CC=C4[C@@H](CC[C@@H](O)C4(C)C)[C@]3(C)[C@H](O)C[C@]12C | Active |
| COC(C)(C)[C@H](O)CC[C@@H](C)[C@H]1CC[C@@]2(C)[C@@H]3CC=C4[C@@H](CC[C@H](O)C4(C)C)[C@]3(C)C(=O)C[C@]12C | Active |
| COC(C)(C)[C@H](O)CC[C@@H](C)[C@H]1CC[C@@]2(C)[C@@H]3CC=C4[C@@H](CC[C@H](O)C4(C)C)[C@]3(C)[C@H](O)C[C@]12C | Active |
